Values compiled from patent US20030228672A1.

Test system: purified SDH of Ketogulonigenium sp. ADM 291-19
Assay: Substrate specificity of purified SDH, PMS-DCIP method
Assay type: biochemical
Conditions: substrate 250 mM, 1-Propanol = 100
PARAMETER: % relative activity, ADM291-19 (%)
I only need the number, in %, no unit after it.

q: Give the measured % relative activity, ADM291-19 of O=C(CO)[C@@H](O)[C@H](O)[C@H](O)CO .
a: 11.7

q: Can you look up the measured % relative activity, ADM291-19 of O=C(CO)[C@@H](O)[C@H](O)[C@@H](O)CO for me?
a: 8.8

q: # % relative activity, ADM291-19 lookup, item O=C(O)[C@H](O)[C@@H](O)[C@H](O)[C@H](O)CO [D-Gluconate]
a: 20.0

q: Find the recorded % relative activity, ADM291-19 belonging to OC[C@@H](O)[C@@H](O)[C@H](O)[C@@H](O)CO and report it.
a: 12.4

q: Please report the recorded % relative activity, ADM291-19 for O=CC=O .
a: 16.1

q: Fill blank: measured % relative activity, ADM291-19 of the compound O=C[C@H](O)[C@@H](O)[C@H](O)[C@H](O)CO is ____.
a: 20.0

q: I am curious: what % relative activity, ADM291-19 value has been reported for OCC(O)CO ?
a: 32.5
